Target: T1, recombinant human IL-2 receptor beta containing a His-tag and Avi-Tag (R&D Systems #AVI10459) (human, UniProt P14784 27-239)
T1 construct: bought protein, held on the Octet SAX2 sensor; also called CD122; IL-2Rβ
T1 sequence (looked up): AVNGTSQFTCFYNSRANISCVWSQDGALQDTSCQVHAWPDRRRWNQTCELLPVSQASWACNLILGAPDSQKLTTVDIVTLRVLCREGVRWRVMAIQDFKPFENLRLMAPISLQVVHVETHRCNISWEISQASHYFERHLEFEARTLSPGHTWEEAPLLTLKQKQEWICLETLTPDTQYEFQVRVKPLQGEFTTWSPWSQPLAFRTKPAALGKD
Assay Overview: BLI (Octet), receptor on SAX2 sensor, IL-2 as analyte
Procedure: Bilayer interferometry (BLI) assays were used to measure the binding constants between activatable IL-2 polypeptides (and activated versions thereof) to IL-2 receptor subunits or receptor complexes. BLI assays were conducted on an Octet® R8 instrument. Assay plates were 96 well, polypropylene, F-bottom (chimney well), black microplates (Greiner Bio-one, Cat. No: 655209). The biosensors were Octet® SAX2 (Sartorius, Cat. No: 18-5136). […]
Bridges are numbered along the chain shown (N, C = ends). [ ]: non-standard residue; d: D form. Ygp = O-(8x polyethylene glycol-amino)-tyrosine; Yn3 = O-(9x polyethylene glycol-azido)-tyrosine; hSer = N[C@@H](CCO)C(=O)O; Nle = CCCC[C@H](N)C(=O)O
Kindly state kon for each of the entries shown.
All answers are understood in M⁻¹ s⁻¹, so give the number only.

// query kon value for entry CMP-138 (ligand, disulfide 58-105; bridge N-29; not fully specified (residue 29, bridges)) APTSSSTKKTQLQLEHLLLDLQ[Nle]ILNGIENYKNPKLTR[Nle]L[hSer][Yn3]KF[Ygp][Nle]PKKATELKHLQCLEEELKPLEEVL[hSer]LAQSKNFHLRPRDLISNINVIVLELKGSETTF[hSer]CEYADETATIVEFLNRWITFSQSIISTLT
898000

CMP-168 (ligand, disulfide 58-105 (inferred); bridge 9-23; not fully specified (residue 23, bridges)) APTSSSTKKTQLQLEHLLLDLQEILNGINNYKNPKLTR[Nle]L[hSer][Yn3]KF[Ygp][Nle]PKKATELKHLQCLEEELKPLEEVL[hSer]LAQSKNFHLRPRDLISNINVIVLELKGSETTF[hSer]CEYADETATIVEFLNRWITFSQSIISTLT , same question.
2880
